Test system: ATP;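 also: ATP exposure 15 min at 22 °C before imaging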
TEST_SUMMARY: switch fluorescence ratio, 500 uM ATP over buffer (Cy3 cluster intensity, sum of 5 cycles each) (fold (ratio)); higher = stronger signal-on switching upon ATP binding; sequences stand for … in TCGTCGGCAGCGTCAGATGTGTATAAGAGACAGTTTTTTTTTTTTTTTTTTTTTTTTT…TC
RECORDED_CONDITIONS: aptamer strand: ATP DNA aptamer (quencher-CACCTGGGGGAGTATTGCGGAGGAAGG + anchor), 100 nM annealed; ATP concentration: 500 uM
QUANTITY: switch fluorescence ratio
Simply state the number, no unit and no words.

// recorded switch fluorescence ratio for TTTTCCTAGA : 1

The reported value for CACCTACATG in terms of switch fluorescence ratio is 1.21

Quick note, switch fluorescence ratio for CGCCTCAGGG landed at 1.14

Measured switch fluorescence ratio, CGGGCTAAGG : 0.986

In plain terms, AAGTAGGGGA has a documented switch fluorescence ratio of 1.02

Input CATTAGACAT . Output switch fluorescence ratio: 0.994

Looking up CATAGTTTGG , I found its switch fluorescence ratio recorded as 1.07

Given item CTTCTTGTTT , the value recorded as its switch fluorescence ratio is 1.01

The reported value for TGGCACGGGC in terms of switch fluorescence ratio is 1.02

Lookup result for AGGTGTAGCA ; measured switch fluorescence ratio: 1.02

Record TTAGGACTTG , field switch fluorescence ratio: 0.985

Entry TCGGGTTTAG ; switch fluorescence ratio = 1.04

Noted for GATAGGAAAC : its switch fluorescence ratio reads 1.12

GET /value?item= TTTTATGGCT &field=switch fluorescence ratio returns 0.982

Lab note: measured switch fluorescence ratio of ACAAATATAT was 1.17

The recorded switch fluorescence ratio for entry GCTTTTTATA equals 1.02

Lookup result for TGAGTAAGGA ; measured switch fluorescence ratio: 1.03

Input GGAGTTCCAG . Output switch fluorescence ratio: 0.978

switch fluorescence ratio recorded for this sequence, TTCTGAATTT , is 0.999

switch fluorescence ratio in this record for TTATGATCAG : 0.991

###

Test system: ATP;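 also: ATP exposure 15 min at 22 °C before imaging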
TEST_SUMMARY: switch fluorescence ratio, 500 uM ATP over buffer (Cy3 cluster intensity, sum of 5 cycles each) (fold (ratio)); higher = stronger signal-on switching upon ATP binding; sequences stand for … in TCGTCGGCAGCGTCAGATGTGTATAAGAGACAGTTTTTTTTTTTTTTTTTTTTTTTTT…TC
RECORDED_CONDITIONS: aptamer strand: ATP DNA aptamer (quencher-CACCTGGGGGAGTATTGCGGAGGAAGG + anchor), 100 nM annealed; ATP concentration: 500 uM
Threshold check on switch fluorescence ratio: at or above 1 gives Satisfied, strictly below gives Not satisfied.

hey, is switch fluorescence ratio for this one >= 1? TAGGCGGCAC
Satisfied

Check if switch fluorescence ratio >= 1 (inclusive). Item: TTTGTGTGGA
Satisfied

Is it the case that TAGCGGGTTT has switch fluorescence ratio reaching or exceeding 1?
Satisfied

// inclusive: switch fluorescence ratio at least 1? input: CGGGCGTGCC
Not satisfied

Determine whether measured switch fluorescence ratio meets or exceeds 1 for ACCAGGGTCA
Satisfied

Quick check: does ACTTGGCAAT have switch fluorescence ratio greater than or equal to 1?
Satisfied

Is reported switch fluorescence ratio greater than or equal to 1 here: GATTCAGTAC
Satisfied

Reported switch fluorescence ratio at or above 1? TCCTGACGTA
Satisfied

Could you verify whether the entry ATACGGGGCT shows switch fluorescence ratio of no less than 1?
Satisfied

Given the entry CCGTGGCGCA , answer whether its switch fluorescence ratio meets or surpasses 1.
Satisfied

Entry CGCTAATCAA : is its switch fluorescence ratio no less than 1?
Satisfied

Please check the record GTTTGATCAG and state if its switch fluorescence ratio is at or above 1.
Not satisfied

Quick check, switch fluorescence ratio >= 1? CTTCCGCTTG
Satisfied

Kindly determine if switch fluorescence ratio recorded for GGTTTGTCGT is above or exactly 1.
Not satisfied

Determine whether this sequence has switch fluorescence ratio no lower than 1: ACCGGGTTGC
Satisfied

Hello, I need to know if GTCTGTTCTT has measured switch fluorescence ratio not below 1. Thanks!
Not satisfied

Entry ATCGACGTTT : is its switch fluorescence ratio no less than 1?
Satisfied

Check this sequence for switch fluorescence ratio at or above 1: ACTATTTGTT
Satisfied

Decide: switch fluorescence ratio of CCGGGCGACA >= 1?
Satisfied

Evaluate TAGGTGGGAT : switch fluorescence ratio at minimum 1?
Satisfied

Does the reported switch fluorescence ratio for GGGATGGGAC fall at or above the 1 mark?
Satisfied

Determine whether this sequence has switch fluorescence ratio no lower than 1: TCGGTATGAG
Not satisfied

Entry ATGTTGACCG : is its switch fluorescence ratio no less than 1?
Satisfied

Quick check, switch fluorescence ratio >= 1? GAAGCCGGGC
Satisfied

Tell me whether switch fluorescence ratio is at least 1 here: CACGGTATTT
Satisfied

For this sequence, is measured switch fluorescence ratio 1 or higher? GCCCGAGCAG
Satisfied

Is switch fluorescence ratio for CGCCCCTGGG at or above 1?
Satisfied

State whether the measured switch fluorescence ratio reaches 1, counting equality as reaching it, for ACGGCGGGGG
Satisfied
